# System: NCI-H2347
# test summary: Antiproliferative activity against human NCI-H2347 cells assessed as inhibition of cell proliferation incubated for 3 days by CellTiter-Glo Luminescent Cell Viability Assay
# Assay type: functional, cell-based
# conditions used: NCI-H2347, 72 h
readout: IC50 (nM)
// units = nM; emit number, no label

IN: Report IC50, nothing else, for this compound: Cc1nc(Nc2n[nH]c3c2CN(C(=O)N[C@H](CN(C)C)c2ccccc2)C3(C)C)c2sccc2n1
OUT: 2

---

# Test system: NCI-H1734
# test summary: Antiproliferative activity against human NCI-H1734 cells assessed as inhibition of cell proliferation incubated for 3 days by CellTiter-Glo Luminescent Cell Viability Assay
# Type: functional, cell-based
# conditions used: NCI-H1734, 72 h
readout: IC50
// unit must come after the numeric part

IN: Please report IC50 for the following molecule: Cc1nc(Nc2n[nH]c3c2CN(C(=O)N[C@H](CN(C)C)c2ccccc2)C3(C)C)c2sccc2n1 [PF-03758309]
OUT: 4.1 nM

---

# test target: UniProt P05129
# test summary: Inhibition of human PKCgamma in presence of ATP by cellular assay
readout: pIC50
On this scale, pIC50 is minus log10 of a concentration expressed in M (mol/L).

IN: Find the measured pIC50 of Cc1nc(Nc2n[nH]c3c2CN(C(=O)N[C@H](CN(C)C)c2ccccc2)C3(C)C)c2sccc2n1 [PF-03758309] and report it.
OUT: 5.32

---

# Tested on: BXPC-3
# test summary: Antiproliferative activity against human BXPC-3 cells assessed as inhibition of cell proliferation incubated for 3 days by CellTiter-Glo Luminescent Cell Viability Assay
# Type: functional, cell-based
# conditions used: BXPC-3, 72 h
readout: IC50
Report field: quantity (unit follows the number).

IN: Check the records and state IC50 for Cc1nc(Nc2n[nH]c3c2CN(C(=O)N[C@H](CN(C)C)c2ccccc2)C3(C)C)c2sccc2n1
OUT: 39 nM

---

# System: MDA-MB-415
# test summary: Antiproliferative activity against human MDA-MB-415 cells assessed as inhibition of cell proliferation incubated for 3 days by CellTiter-Glo Luminescent Cell Viability Assay
# Format: functional, cell-based
# conditions used: MDA-MB-415, 72 h
readout: pIC50
The meaning of pIC50 here: minus log10 of the concentration in molar units.

IN: # lookup: MDA-MB-415 pIC50, key = Cc1nc(Nc2n[nH]c3c2CN(C(=O)N[C@H](CN(C)C)c2ccccc2)C3(C)C)c2sccc2n1 [PF-03758309]
OUT: 7.44

---

# Test system: ZR-75-1
# test summary: Antiproliferative activity against human ZR-75-1 cells assessed as inhibition of cell proliferation incubated for 3 days by CellTiter-Glo Luminescent Cell Viability Assay
# Type: functional, cell-based
# conditions used: ZR-75-1, 72 h
readout: IC50 (nM)
Express the result in nM but write the number alone.

IN: Assign IC50 to the following record: Cc1nc(Nc2n[nH]c3c2CN(C(=O)N[C@H](CN(C)C)c2ccccc2)C3(C)C)c2sccc2n1
OUT: 0.49

---

# test target: RAC-gamma serine/threonine-protein kinase (Homo sapiens)
# Sequence (Q9Y243 whole entry): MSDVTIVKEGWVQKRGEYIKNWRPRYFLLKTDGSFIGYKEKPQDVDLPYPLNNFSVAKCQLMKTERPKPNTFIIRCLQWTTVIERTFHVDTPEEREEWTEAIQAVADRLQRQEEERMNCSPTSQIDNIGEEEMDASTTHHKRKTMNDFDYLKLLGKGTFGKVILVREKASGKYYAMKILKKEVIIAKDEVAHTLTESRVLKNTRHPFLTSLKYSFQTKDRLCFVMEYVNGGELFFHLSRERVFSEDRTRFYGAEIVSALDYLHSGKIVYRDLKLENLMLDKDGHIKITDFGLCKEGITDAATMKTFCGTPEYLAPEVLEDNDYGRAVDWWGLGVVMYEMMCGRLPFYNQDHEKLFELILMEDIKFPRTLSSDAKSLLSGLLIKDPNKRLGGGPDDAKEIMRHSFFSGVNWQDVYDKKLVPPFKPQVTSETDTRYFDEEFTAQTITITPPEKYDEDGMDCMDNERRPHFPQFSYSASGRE
# test summary: Inhibition of human AKT3 assessed as inhibition constant in presence of ATP
readout: pKi
Scale: pKi equals -log10([C]), with [C] in mol/L.

IN: # lookup: RAC-gamma serine/threonine-protein kinase (Homo sapiens) pKi, key = Cc1nc(Nc2n[nH]c3c2CN(C(=O)N[C@H](CN(C)C)c2ccccc2)C3(C)C)c2sccc2n1
OUT: 6.76

---

# test summary: Inhibition of YFP/YFP variant coding sequence fused PAK4/cofilin (unknown origin) expressed in HEK293 cells incubated for 8 to 24 hrs by fluorescence based analysis
# Type: cell-based, Homo sapiens
readout: pIC50
Units for pIC50: none; it is -log10 of a concentration expressed in mol/L.

IN: Fill in reported pIC50 for this entry: Cc1nc(Nc2n[nH]c3c2CN(C(=O)N[C@H](CN(C)C)c2ccccc2)C3(C)C)c2sccc2n1 [PF-03758309]
OUT: 7.98

---

# test target: Serine/threonine-protein kinase D1 (Homo sapiens, UniProt Q15139)
# Sequence (Q15139 whole entry): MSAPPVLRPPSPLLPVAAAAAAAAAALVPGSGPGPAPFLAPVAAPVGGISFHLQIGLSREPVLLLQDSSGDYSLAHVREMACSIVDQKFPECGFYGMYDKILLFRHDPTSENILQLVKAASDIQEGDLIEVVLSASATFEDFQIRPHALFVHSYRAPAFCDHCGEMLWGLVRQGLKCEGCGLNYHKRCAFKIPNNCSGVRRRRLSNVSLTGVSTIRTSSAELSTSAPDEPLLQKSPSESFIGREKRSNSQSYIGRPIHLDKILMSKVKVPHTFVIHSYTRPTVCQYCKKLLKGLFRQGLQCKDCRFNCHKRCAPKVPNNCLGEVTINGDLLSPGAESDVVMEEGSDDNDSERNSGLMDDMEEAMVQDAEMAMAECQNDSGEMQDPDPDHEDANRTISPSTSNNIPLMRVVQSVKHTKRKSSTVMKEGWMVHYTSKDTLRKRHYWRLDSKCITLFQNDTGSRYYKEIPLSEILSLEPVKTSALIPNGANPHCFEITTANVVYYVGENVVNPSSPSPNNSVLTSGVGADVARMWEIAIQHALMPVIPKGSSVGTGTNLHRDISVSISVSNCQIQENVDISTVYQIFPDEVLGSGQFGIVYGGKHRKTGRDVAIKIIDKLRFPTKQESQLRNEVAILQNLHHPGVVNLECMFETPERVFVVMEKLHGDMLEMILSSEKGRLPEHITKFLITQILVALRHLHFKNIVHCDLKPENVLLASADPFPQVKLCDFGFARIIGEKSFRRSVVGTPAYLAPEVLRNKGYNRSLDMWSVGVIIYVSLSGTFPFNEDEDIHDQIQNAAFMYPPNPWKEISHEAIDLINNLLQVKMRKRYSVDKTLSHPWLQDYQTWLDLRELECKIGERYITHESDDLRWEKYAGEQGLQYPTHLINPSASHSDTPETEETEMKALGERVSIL
# test summary: Inhibition of human PKCmu in presence of ATP
readout: IC50 (µM)
Write it as a number; the unit µM goes unstated.

IN: Note IC50 for the compound shown: Cc1nc(Nc2n[nH]c3c2CN(C(=O)N[C@H](CN(C)C)c2ccccc2)C3(C)C)c2sccc2n1
OUT: 0.021

---

# test target: Serine/threonine-protein kinase Chk2 (Homo sapiens)
# Sequence (O96017 whole entry): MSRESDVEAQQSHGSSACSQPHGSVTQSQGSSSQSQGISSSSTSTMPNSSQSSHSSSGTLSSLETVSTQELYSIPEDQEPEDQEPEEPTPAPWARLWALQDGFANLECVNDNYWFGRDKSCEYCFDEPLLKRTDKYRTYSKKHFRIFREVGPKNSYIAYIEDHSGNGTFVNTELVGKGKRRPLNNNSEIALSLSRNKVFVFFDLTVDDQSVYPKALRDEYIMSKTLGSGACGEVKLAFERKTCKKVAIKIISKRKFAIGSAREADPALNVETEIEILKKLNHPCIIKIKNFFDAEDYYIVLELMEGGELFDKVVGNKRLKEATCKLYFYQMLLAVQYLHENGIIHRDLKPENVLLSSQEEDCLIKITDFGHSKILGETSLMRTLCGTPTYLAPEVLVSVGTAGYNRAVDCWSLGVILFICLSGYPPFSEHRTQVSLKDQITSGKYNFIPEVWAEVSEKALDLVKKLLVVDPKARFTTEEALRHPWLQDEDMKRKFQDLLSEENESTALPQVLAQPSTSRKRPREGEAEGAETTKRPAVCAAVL
readout: pKi
pKi is defined as minus the log10 of a concentration measured in mol/L.

IN: Report measured pKi on Serine/threonine-protein kinase Chk2 (Homo sapiens); entry: Cc1nc(Nc2n[nH]c3c2CN(C(=O)N[C@H](CN(C)C)c2ccccc2)C3(C)C)c2sccc2n1
OUT: 8.52

---

# test target: Tumour suppressor p53/oncoprotein Mdm2 (Homo sapiens, UniProt P04637+Q00987)
# Sequence (P04637 whole entry, looked up, change not shown, the tested form may be a part): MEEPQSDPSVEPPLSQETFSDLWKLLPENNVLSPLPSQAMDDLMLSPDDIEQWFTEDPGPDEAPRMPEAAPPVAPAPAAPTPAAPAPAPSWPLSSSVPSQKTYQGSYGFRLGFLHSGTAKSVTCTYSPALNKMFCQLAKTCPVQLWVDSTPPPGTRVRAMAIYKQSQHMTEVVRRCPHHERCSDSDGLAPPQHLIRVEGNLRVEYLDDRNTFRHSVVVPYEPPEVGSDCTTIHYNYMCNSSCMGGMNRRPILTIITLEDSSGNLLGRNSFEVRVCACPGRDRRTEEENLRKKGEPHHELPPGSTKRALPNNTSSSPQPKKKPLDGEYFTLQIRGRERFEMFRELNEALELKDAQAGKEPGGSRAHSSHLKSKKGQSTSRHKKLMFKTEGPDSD
# Sequence (Q00987 whole entry, looked up, change not shown, the tested form may be a part): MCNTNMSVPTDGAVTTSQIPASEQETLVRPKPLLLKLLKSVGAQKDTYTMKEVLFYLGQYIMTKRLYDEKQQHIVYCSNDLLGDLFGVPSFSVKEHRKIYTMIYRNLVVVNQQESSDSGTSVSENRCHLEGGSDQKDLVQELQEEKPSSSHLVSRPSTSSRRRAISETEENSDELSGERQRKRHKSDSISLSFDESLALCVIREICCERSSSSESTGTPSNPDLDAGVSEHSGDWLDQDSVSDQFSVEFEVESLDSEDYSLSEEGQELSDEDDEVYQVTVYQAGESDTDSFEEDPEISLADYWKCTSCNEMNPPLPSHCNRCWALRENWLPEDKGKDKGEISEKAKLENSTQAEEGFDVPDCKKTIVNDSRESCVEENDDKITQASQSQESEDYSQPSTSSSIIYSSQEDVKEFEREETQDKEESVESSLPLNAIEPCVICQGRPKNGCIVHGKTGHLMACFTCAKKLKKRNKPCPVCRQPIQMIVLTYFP
# test summary: Inhibition of YFP/YFP variant coding sequence fused p53/Mdm2 (unknown origin) expressed in HEK293 cells incubated for 8 to 24 hrs by fluorescence based analysis
readout: IC50 (nM)
Give the value, in units of nM, as a plain number.

IN: Return IC50 for the following compound: Cc1nc(Nc2n[nH]c3c2CN(C(=O)N[C@H](CN(C)C)c2ccccc2)C3(C)C)c2sccc2n1
OUT: 5.6

---

# test summary: Drug concentration in nude mouse plasma xenografted with human HCT-116 cells at 0.12 mg/kg administered via pump for 9 days by LC-MS/MS analysis
# Format: ADME, organism-based
# conditions used: time 9 day
readout: concentration at 216 h (ng/mL)
Numeric answer only, unit ng/mL assumed.

IN: Identify concentration at 216 h associated with the molecule Cc1nc(Nc2n[nH]c3c2CN(C(=O)N[C@H](CN(C)C)c2ccccc2)C3(C)C)c2sccc2n1
OUT: 0.56

---

# test target: cGMP-dependent protein kinase 1 (Homo sapiens)
# Sequence (Q13976 whole entry): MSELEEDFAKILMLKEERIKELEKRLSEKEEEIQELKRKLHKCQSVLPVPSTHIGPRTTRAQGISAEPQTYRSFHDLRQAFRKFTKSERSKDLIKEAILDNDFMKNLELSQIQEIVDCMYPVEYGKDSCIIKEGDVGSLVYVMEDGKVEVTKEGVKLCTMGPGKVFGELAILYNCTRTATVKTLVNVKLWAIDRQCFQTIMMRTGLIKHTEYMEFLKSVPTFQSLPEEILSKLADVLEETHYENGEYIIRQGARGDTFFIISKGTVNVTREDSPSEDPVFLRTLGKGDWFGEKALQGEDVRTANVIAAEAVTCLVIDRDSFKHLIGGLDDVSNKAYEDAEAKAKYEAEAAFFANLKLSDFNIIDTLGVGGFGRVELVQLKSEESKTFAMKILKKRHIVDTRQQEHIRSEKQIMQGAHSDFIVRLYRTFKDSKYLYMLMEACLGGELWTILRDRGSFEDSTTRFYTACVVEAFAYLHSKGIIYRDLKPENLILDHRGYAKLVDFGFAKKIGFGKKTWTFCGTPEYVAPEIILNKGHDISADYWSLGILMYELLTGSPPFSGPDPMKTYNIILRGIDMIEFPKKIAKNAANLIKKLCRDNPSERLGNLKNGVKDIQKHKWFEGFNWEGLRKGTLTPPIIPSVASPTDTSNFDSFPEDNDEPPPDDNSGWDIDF
# test summary: Inhibition of human PRKG1 in presence of ATP by cellular assay
readout: IC50
Don't forget the unit after the number, please.

IN: Give the value of IC50 reported for the following: Cc1nc(Nc2n[nH]c3c2CN(C(=O)N[C@H](CN(C)C)c2ccccc2)C3(C)C)c2sccc2n1
OUT: 3.37 µM

---

# System: CAMA-1
# test summary: Antiproliferative activity against human CAMA-1 cells assessed as inhibition of cell proliferation incubated for 3 days by CellTiter-Glo Luminescent Cell Viability Assay
# Format: functional, cell-based
# conditions used: CAMA-1, 72 h
readout: pIC50
# pIC50: negative log10 of molar concentration; output just the value

IN: Read the entry Cc1nc(Nc2n[nH]c3c2CN(C(=O)N[C@H](CN(C)C)c2ccccc2)C3(C)C)c2sccc2n1 and write its reported pIC50.
OUT: 8.57

---

# test target: UniProt Q15349
# Sequence (Q15349 whole entry): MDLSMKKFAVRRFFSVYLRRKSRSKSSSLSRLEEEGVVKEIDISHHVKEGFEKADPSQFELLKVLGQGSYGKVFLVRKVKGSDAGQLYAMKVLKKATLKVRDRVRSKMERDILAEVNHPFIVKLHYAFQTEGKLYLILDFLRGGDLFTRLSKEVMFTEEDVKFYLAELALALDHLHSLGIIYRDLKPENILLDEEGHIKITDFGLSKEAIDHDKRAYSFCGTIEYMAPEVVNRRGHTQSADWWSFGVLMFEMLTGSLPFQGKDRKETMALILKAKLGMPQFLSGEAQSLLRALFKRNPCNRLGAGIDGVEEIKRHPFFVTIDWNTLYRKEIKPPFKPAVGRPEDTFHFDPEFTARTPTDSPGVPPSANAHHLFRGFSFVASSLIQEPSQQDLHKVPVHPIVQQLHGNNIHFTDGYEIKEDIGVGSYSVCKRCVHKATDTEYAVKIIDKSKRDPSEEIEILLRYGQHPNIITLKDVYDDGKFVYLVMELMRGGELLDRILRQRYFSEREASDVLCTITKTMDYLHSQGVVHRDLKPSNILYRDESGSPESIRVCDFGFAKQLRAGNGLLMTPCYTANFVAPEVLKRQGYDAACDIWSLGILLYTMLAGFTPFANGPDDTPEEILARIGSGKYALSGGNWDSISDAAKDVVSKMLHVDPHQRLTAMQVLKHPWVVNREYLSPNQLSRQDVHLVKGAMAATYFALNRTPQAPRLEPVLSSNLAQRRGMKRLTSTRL
# test summary: Inhibition of human RSK3 in presence of ATP by cellular assay
readout: IC50 (nM)
Lab book: enter the figure in nM, no units written.

IN: Report IC50, nothing else, for this compound: Cc1nc(Nc2n[nH]c3c2CN(C(=O)N[C@H](CN(C)C)c2ccccc2)C3(C)C)c2sccc2n1
OUT: 1960
